Taken from patent US8815935B2.

experiment: Pharmacokinetics (serum levels) after IP dosing; assay type: in vivo, mice; conditions: mouse, serum, ip, 1.16 mg/kg
readoutKind: half-life (min)
Provide the reading as a plain figure in min.

Query block: Param item = Cc1ccccc1S(=O)(=O)N1C(c2ccc(Cl)cc2)C(C(=O)NC(Cc2ccccc2)C(N)=O)=CC1C(C)(C)C (stereo not shown) ; retrieve measured half-life.
Result block: 1010

###

system: Jurkat cells; assay: Jurkat cell growth inhibition; assay type: cell-based, human; conditions: Homo sapiens, Jurkat, Tables 4, 6, 7; read-out: Jurkat cell GI50
readoutKind: GI50 (µM)
Provide the reading as a plain figure in µM.

Use the examples below as a reference point.
- compound: "Cc1ccccc1S(=O)(=O)N1[C@@H](c2ccc(Cl)c(Cl)c2)C(C(=O)N[C@@H](Cc2ccccc2)C(N)=O)=C[C@H]1C(C)(C)C"
  GI50 [µM]: 5.62
- compound: "NC(=O)[C@H](Cc1ccccc1)NC(=O)C1=CC[C@@H](c2cccc(Br)c2)N(S(=O)(=O)c2ccc(Cl)cc2)C1c1cccc(Cl)c1 (stereo partly drawn)"
  GI50 [µM]: 4.86
- compound: "COC(=O)[C@H](Cc1ccccc1)NC(=O)C1=C[C@@H](C(C)(C)C)N(S(=O)(=O)c2ccccc2C)[C@H]1c1ccc(Cl)cc1"
  GI50 [µM]: 19
- compound: "CC(C)(C)[C@@H]1C=C(C(=O)N[C@@H](Cc2ccccc2)C(N)=O)[C@H](c2ccc(Cl)c(Cl)c2)N1S(=O)(=O)C(C)(C)C"
  GI50 [µM]: 5.91
- compound: "CONC(=O)C1=C[C@@H](C(C)(C)C)N(S(=O)(=O)c2ccccc2C)[C@H]1c1ccc(Cl)cc1"
  GI50 [µM]: 12.6
- compound: "Cc1ccccc1S(=O)(=O)N1[C@@H](c2ccc(Cl)cc2)C(CO)=C[C@H]1C(C)(C)C"
  GI50 [µM]: 5.8
- compound: "CCOC(=O)C1=C[C@@H](C(C)(C)C)N(S(=O)(=O)c2ccccc2C)[C@H]1c1ccc(Cl)cc1"
  GI50 [µM]: 18.5
- compound: "COC(=O)C(CC(C)C)NC(=O)C1=CCC(c2cccc(Cl)c2)N(S(=O)(=O)c2ccc(Br)cc2)C1c1cccc(Br)c1 (stereo not drawn)"
  GI50 [µM]: 8

Query block: Param item = Cc1ccccc1S(=O)(=O)N1[C@@H](c2ccc(Cl)cc2)C(C(=O)O)=C[C@H]1C(C)(C)C [drawing 136] ; retrieve measured GI50.
Result block: 20

Query block: Param item = CC(C)C[C@H](NC(=O)C1=CC[C@@H](c2cccc(Br)c2)N(S(=O)(=O)c2ccc(Cl)cc2)C1c1cccc(Cl)c1)C(N)=O (stereo partly drawn) ; retrieve measured GI50.
Result block: 3.15

Query block: Param item = NC(=O)[C@H](Cc1ccccc1)NC(=O)C1=CC[C@@H](c2cccc(Cl)c2)N(S(=O)(=O)c2ccc(Cl)cc2)C1c1cccc(Cl)c1 (stereo partly drawn) ; retrieve measured GI50.
Result block: 1.96

Query block: Param item = "Cc1ccccc1S(=O)(=O)N1[C@@H](c2ccc(Cl)cc2)C(C(N)=O)=C[C@H]1C(C)(C)C" ; retrieve measured GI50.
Result block: 11

Query block: Param item = Cc1ccccc1S(=O)(=O)N1[C@@H](c2ccc(Cl)cc2)C(C(=O)N[C@@H](Cc2ccccc2)C(N)=O)=C[C@H]1C(C)CC(C)(C)C (stereo partly drawn) ; retrieve measured GI50.
Result block: 9.76

Query block: Param item = "COC(=O)[C@H](CC(C)C)NC(=O)C1=CC[C@@H](c2ccc(Cl)cc2)N(S(=O)(=O)c2ccccc2C)[C@H]1c1cccc(Cl)c1" ; retrieve measured GI50.
Result block: 3.53

Query block: Param item = CC(C)C[C@H](NC(=O)C1=CC[C@@H](c2cccc(Br)c2)N(S(=O)(=O)c2ccc(F)cc2)C1c1cccc(Cl)c1)C(N)=O (stereo partly drawn) ; retrieve measured GI50.
Result block: 1.76

Query block: Param item = "Cc1ccccc1S(=O)(=O)N1[C@@H](c2ccc(Cl)cc2)C(C(=O)N[C@@H](CC(C)C)C(N)=O)=C[C@H]1C(C)(C)C" ; retrieve measured GI50.
Result block: 6.58

Query block: Param item = "Cc1ccccc1S(=O)(=O)N1[C@@H](c2ccc(Cl)cc2)C(C(=O)N[C@@H](Cc2ccccc2)C(N)=O)=C[C@H]1C(C)(C)C" ; retrieve measured GI50.
Result block: 4.89

Query block: Param item = "Cc1ccccc1S(=O)(=O)N1[C@@H](c2ccc(Cl)cc2)C(C(=O)NO)=C[C@H]1C(C)(C)C" ; retrieve measured GI50.
Result block: 4.02
